B1: glmS ribozyme (parent)
chain: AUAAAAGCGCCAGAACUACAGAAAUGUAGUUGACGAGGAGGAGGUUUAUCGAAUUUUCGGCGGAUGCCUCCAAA

- Variants of: B1
- Run description: self-cleavage kobs at 640 uM GlcN6P; higher = faster cleavage; RNA array
- Setup conditions: with glucosamine-6-phosphate
This sample holds only a part of the variants without activity.
Readout label: self-cleavage kobs at 640 uM GlcN6P

[
  {
    "Sequence record": "AUAAAAGCGCCAGAACUACAGAAAUGUAGUUGACGUGGUGGAGGCUUAUCGAAUUUUUGGCGGAUGCCUCCAAA [A36U A39U U45C C58U]",
    "Reading": "< 1e-05 s⁻¹"
  },
  {
    "Sequence record": "AUAAAAGCGUCAGAACUACAGAAAUGUAGUUGACGAGGAGGAUGUUUAUCGAAUUUUCGGCGGAUGCCUCCAAA [C10U G43U]",
    "Reading": "< 1e-05 s⁻¹"
  },
  {
    "Sequence record": "AUAAAAGCGCCAGAAAUACAGAAAUGUAAUUGACGUGGAGGAGGUUUAUCGAAUUUUCGGCGGAAGCCUCUAAA [C16A G29A A36U U65A C71U]",
    "Reading": "< 1e-05 s⁻¹"
  },
  {
    "Sequence record": "AUAAAAGCGCCAGAACUACAGAAAUGUAGUUGACGAGGAGGAGAUUUAUCGAAUUUUCGGCGGACGCCUCCAAA [G44A U65C]",
    "Reading": "< 1e-05 s⁻¹"
  },
  {
    "Sequence record": "AUAAAAGCGCCAGAACUACAGAAAUGUAGUUGGCGCGGAGGAGGUUUAUCGAAUUUUCGGCGGAUGCCUCCAAA [A33G A36C]",
    "Reading": "< 1e-05 s⁻¹"
  },
  {
    "Sequence record": "AUAAAGGCGCCAGAACUACAGAAAUGUAGUUGACGAGGAGGAGGUUUAUGAAAUUUUCGGCGGAUGCCUCCAAA [A6G C50G G51A]",
    "Reading": "< 1e-05 s⁻¹"
  },
  {
    "Sequence record": "AUAAAAGCGCCAGAACUACAGAAAUGUAGUCGACGAGGAGGAGGUUUAUCGGAUUUUCGGCGGAUGCCUCCAAA [U31C A52G]",
    "Reading": "6.14e-05 s⁻¹"
  },
  {
    "Sequence record": "AUAAAAGCACCAGAACUACAGAAAUGUAGUUGACGAGGAGGAGGUUUAUCGAAUUUUCGGUGGAUGCCUCCAAA [G9A C61U]",
    "Reading": "5.18e-05 s⁻¹"
  },
  {
    "Sequence record": "AUAAAAGCGCCAGAACUACAGAAAUGUAGUUGACGAGGAGGAGGUUUAUCGAAGUUUCGGCGGAUGACUCCAAA [U54G C67A]",
    "Reading": "0.000916 s⁻¹"
  },
  {
    "Sequence record": "AUAAAAGCGCCAGAACUACAGAAAUGUAGUUGACGAGGGGGAGUUUUAUCGAAUUUUCGGCGGAUGCCUCCAAA [A39G G44U]",
    "Reading": "0.000198 s⁻¹"
  },
  {
    "Sequence record": "AUAAAAGAGCCAGAACUACAGAAAUGUAGUUGACGAGGAGGAGGUUUAUCGAAUUAUCGGCGGAUGCCUCCAAA [C8A U56A]",
    "Reading": "< 1e-05 s⁻¹"
  },
  {
    "Sequence record": "AUAAAAGCCACAGAACUACAGAAAUGUAGUUGACGAGGAGGACGUUUAUCGAAUUUUCGGCGGAUGUCUCCAAA [G9C C10A G43C C67U]",
    "Reading": "< 1e-05 s⁻¹"
  },
  {
    "Sequence record": "AUAAAAGCGCCAGAACUACAGAAAUGUAGUUGACGAGGAGGAGGUUUAUCGAAUUUUCGUCGCAUGCCUGCAAA [G60U G63C C70G]",
    "Reading": "< 1e-05 s⁻¹"
  },
  {
    "Sequence record": "AUAAAAGCUGCAGAGCUACAGAAAUGUAGUUGACGAGUGGGAGGUUUAUCGUAUUUUCGGCGGAUGCCUCCAAA [G9U C10G A15G G38U A39G A52U]",
    "Reading": "< 1e-05 s⁻¹"
  },
  {
    "Sequence record": "AUAAAAGCGCCCGAACUACAGAAAUGUAGUUGACGAGGAGGAGGUUUAUCGAAUUUUCGGCGGACGCCUCCAAA [A12C U65C]",
    "Reading": "0.000102 s⁻¹"
  },
  {
    "Sequence record": "AUAAAAGCGCCAGAACUACAGAAAUGUAGUUGACGAGGAGGAGGUUUAUCGAAUCUUCGGCGGAGGCCUCCAAA [U55C U65G]",
    "Reading": "0.000908 s⁻¹"
  },
  {
    "Sequence record": "AUAAAAGCGCCAGAACUACAGAAAUGUAGUUGGCGAGGACCAAGUUUAACGAAUUUUCGGCGGAUGCCUCCAAA [A33G G40C G41C G43A U49A]",
    "Reading": "< 1e-05 s⁻¹"
  },
  {
    "Sequence record": "AUAAAAGCGCCAGAACUACAGAAAUGUAGAUGACGGGGAGGAGGUUUAUCGAAUUUUCGGCGGAUGCCUCCAAA [U30A A36G]",
    "Reading": "< 1e-05 s⁻¹"
  },
  {
    "Sequence record": "AUAAAAGCGCCAGAACUACAGAAAUGUAGUUGACGAGGAAGAGGUUUAUCGAAUUUGCGGCGGAUGCCUCCAAA [G40A U57G]",
    "Reading": "< 1e-05 s⁻¹"
  }
]
